tested on: SR; test: NCI tumour cell line growth inhibition, 48 h
Active and inactive are the calls of the source. No stated cut-off is given here; in the data, active = GI50 up to about 1.1 µM and inactive = higher.
Classes used: active, inactive

                                    compound       cat
 0  COc1ccc(P2(=S)OCCOP(=S)(c3ccc(OC)cc3)S2)cc1 (stereo unspecified)  inactive
 1      O=c1cc(-c2ccccc2)[nH]c2cc(F)c(F)cc12    active
 2                    COc1ccc(Sc2ccccc2N)cc1  inactive
 3  C[As+](C)(c1ccc(Br)c([N+](=O)[O-])c1)c1ccc(Br)c([N+](=O)[O-])c1  inactive
 4  c1ccc(C2SCc3nc4cc5ccccc5cc4n32)cc1 (stereo unspecified)  inactive
 5  CC(C)(O)CO/N=C1\C(=C2\C(=O)Nc3ccccc32)Nc2ccccc21    active
 6  Nc1[nH]c(=S)[nH]c(=O)c1/N=N/c1c(Br)cc(S(N)(=O)=O)cc1Br  inactive
 7        Oc1c2cc(Br)cc1CCc1cc(Br)cc(c1O)CC2    active
 8         COc1cccc(-c2cc(O)c3c(C)ccnc3n2)c1    active
 9      CC1(C)C(=NN=C(N)N)C(C)(C)C1=NN=C(N)N  inactive
10  COc1cc(Nc2nc3cc(C)ccc3nc2-c2ccccc2)cc(OC)c1OC  inactive
